test system: Candida albicans; experiment: Antifungal activity against Candida albicans ATCC 10231 after 48 to 72 hrs by broth microdilution method; assay type: functional
The source made the active and inactive calls. The rule behind the calls is not given here.
recorded-metric: MIC80

Worked examples, 4 compounds total:
compound=CN1C(=O)C(/C=N/NS(=O)(=O)c2ccccc2)C(=O)N(C)C1=O measured_value=inactive
compound=O=C1NC(=O)C(=Cc2cccc3ccccc23)C(=O)N1 measured_value="125 mg/L"
compound=CN1C(=O)C(=Cc2ccc(O)cc2O)C(=O)N(C)C1=O measured_value=inactive
compound=CN/N=C(\C)C1C(=O)NC(=O)NC1=O measured_value=inactive

Look up MIC80 for the entries below, preserving their order.
1. O=C1NC(=O)N(c2ccccc2)C(=O)/C1=C\c1ccc(O)cc1
2. N/N=C/C1C(=O)NC(=O)NC1=O
3. O=C1NC(=O)C(/C=N/Nc2ccc([N+](=O)[O-])cc2)C(=O)N1
4. CN1C(=O)C(/C=N/C2N=NN=N2)C(=O)N(C)C1=O
5. C/C(=N\Nc1ccc([N+](=O)[O-])cc1)C1C(=O)NC(=O)NC1=O

stdout:
1: inactive; 2: 125 mg/L; 3: 2 mg/L; 4: inactive; 5: 2 mg/L

Look up MIC80 for the entries below, preserving their order.
1. CN1C(=O)C(/C=N/c2ccc(-c3ccccc3)cc2)C(=O)N(C)C1=O
2. C/C(=N\c1ccccc1)C1C(=O)NC(=O)NC1=O
3. C/C(=N\c1ccncc1)C1C(=O)NC(=O)NC1=O
4. C/C(=N\CCCCCC(=O)O)C1C(=O)NC(=O)NC1=O
5. C/C(=N\NC(=O)c1ccccc1)C1C(=O)N(C)C(=O)N(C)C1=O
6. C/C(=N\NC(=O)c1ccc([N+](=O)[O-])cc1)C1C(=O)N(C)C(=O)N(C)C1=O
7. CN1C(=O)C(=C/C=C/c2ccccc2)C(=O)N(C)C1=O

stdout:
1. inactive
2. inactive
3. inactive
4. inactive
5. inactive
6. inactive
7. 62 mg/L

* * *

experiment: Cytotoxicity against african green monkey Vero cells assessed as cell viability at 10 times MIC80 for fungus after 24 hrs by MTT assay; type: cell-based; settings: chlorocebus sabaeus, read-out: Activity
recorded-metric: viability at 24 h (%)
One number for each entry, in %.

Look up viability at 24 h for the entries below, preserving their order.
1. CN1C(=O)C(/C=N/Nc2ccc([N+](=O)[O-])cc2)C(=O)N(C)C1=O
2. O=C1NC(=O)C(/C=N/Nc2ccc([N+](=O)[O-])cc2)C(=O)N1
3. CN1C(=O)C(/C=N/Nc2ccccc2)C(=O)N(C)C1=O

stdout:
80
80
80

* * *

system: Candida albicans; assay: Antifungal activity against Candida albicans ATCC 10231 after 48 to 72 hrs by broth microdilution method; assay type: functional
Activity calls are given as the source filed them. How the calls were made is not given here.
recorded-metric: MIC80

Worked examples, 4 molecules total:
molecule=COC(=O)N/N=C(\c1ccc([N+](=O)[O-])cc1)C1C(=O)NC(=O)NC1=O test_system="Candida albicans" recorded_metric=MIC80 measured_value=inactive
molecule=C/C(=N\c1ccncc1)C1C(=O)N(C)C(=O)N(C)C1=O test_system="Candida albicans" recorded_metric=MIC80 measured_value=inactive
molecule=O=C1NC(=O)C(=Cc2ccccc2O)C(=O)N1 test_system="Candida albicans" recorded_metric=MIC80 measured_value=inactive
molecule=O=C1NC(=O)C(/C=N/NC(=O)c2ccc([N+](=O)[O-])cc2)C(=O)N1 test_system="Candida albicans" recorded_metric=MIC80 measured_value="62 mg/L"

Look up MIC80 for the entries below, preserving their order.
1. COc1ccc(C=C2C(=O)N(C)C(=O)N(C)C2=O)c(OC)c1OC
2. C/C(=N\Nc1ccc([N+](=O)[O-])cc1)C1C(=O)NC(=O)N(c2ccccc2)C1=O (stereo unspecified)

stdout:
1. inactive
2. 31.5 mg/L
